Target: AChE (Homo sapiens)
Sequence (P22303 32-614): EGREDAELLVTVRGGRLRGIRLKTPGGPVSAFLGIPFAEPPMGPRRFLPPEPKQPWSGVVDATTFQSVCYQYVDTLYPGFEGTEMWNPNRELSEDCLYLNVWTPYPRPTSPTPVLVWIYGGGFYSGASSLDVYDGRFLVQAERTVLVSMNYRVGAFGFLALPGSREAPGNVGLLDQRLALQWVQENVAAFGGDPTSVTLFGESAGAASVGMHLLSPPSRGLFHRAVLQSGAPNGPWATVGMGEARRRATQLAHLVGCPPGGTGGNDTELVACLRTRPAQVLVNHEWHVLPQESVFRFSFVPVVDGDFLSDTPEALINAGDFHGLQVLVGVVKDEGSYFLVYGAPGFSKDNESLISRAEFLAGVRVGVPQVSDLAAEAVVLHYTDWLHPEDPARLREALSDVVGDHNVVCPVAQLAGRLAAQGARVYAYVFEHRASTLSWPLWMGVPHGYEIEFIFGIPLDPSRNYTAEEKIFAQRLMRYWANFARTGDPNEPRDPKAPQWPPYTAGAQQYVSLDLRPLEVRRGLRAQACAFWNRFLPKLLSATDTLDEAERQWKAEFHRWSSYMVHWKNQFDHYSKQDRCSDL
Assay: Anticholinesterase activity, modified colorimetric Ellman method
Assay type: biochemical
Conditions: read-out: AChE % inhibition
Kind request: treat 90% as inclusive, so inhibition at 1000 µM at 90% or higher is Satisfied, anything lower is Not satisfied.

- COc1ccc(C(=O)C=Cc2ccc(NC(=O)CN3CCN(C4CCCC4)CC3)cc2)cc1OC [Compound 4l]: Not satisfied
- COc1ccc(C(=O)C=Cc2ccc(NC(=O)CN3CCN(C(C)=O)CC3)cc2)cc1OC [Compound 4g]: Satisfied
- C#CCN1CCN(CC(=O)Nc2ccc(C=CC(=O)c3ccc(OC)c(OC)c3)cc2)CC1 [Compound 4e]: Not satisfied
- COc1ccc(C(=O)C=Cc2ccc(NC(=O)CN3CCN(CCN(C)C)CC3)cc2)cc1OC [Compound 4j]: Satisfied

The reported measurements were obtained from paper PMC12560751.
